- tested-system: Fibroblast growth factor 2 (Homo sapiens)
- Sequence (P09038 143-288 limits assumed): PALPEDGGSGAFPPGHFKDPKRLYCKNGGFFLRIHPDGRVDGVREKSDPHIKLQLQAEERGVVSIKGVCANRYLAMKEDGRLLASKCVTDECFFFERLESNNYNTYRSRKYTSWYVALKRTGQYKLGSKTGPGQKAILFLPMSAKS
- experiment-notes: Binding affinity for Fibroblast growth factor 2
Each entry below carries its reported Delta G.
Quick reminder: number only, in kcal/mol, skip the unit.

A selection of reference data follows.
>>> assay_result("O=S(=O)(O)C[C@@H]1[C@H](OS(=O)(=O)O)O[C@H](OS(=O)(=O)O)[C@H](O[C@H]2O[C@@H](COS(=O)(=O)O)[C@@H](OS(=O)(=O)O)[C@H](OS(=O)(=O)O)[C@H]2OS(=O)(=O)O)[C@H]1OS(=O)(=O)O")
-6.24
>>> assay_result("O=S(=O)(O)OC[C@@H]1O[C@@H](O[C@H]2[C@H](OS(=O)(=O)O)[C@H](OS(=O)(=O)O)C(OS(=O)(=O)O)O[C@H]2COS(=O)(=O)O)[C@@H](OS(=O)(=O)O)[C@H](OS(=O)(=O)O)[C@H]1OS(=O)(=O)O (some centres undefined)")
-6.65
>>> assay_result("O=S(=O)(O)c1ccc2c(S(=O)(=O)O)cc(S(=O)(=O)O)cc2c1 [NAPHTHALENE TRISULFONATE]")
-4.98

Proceed to the following item.
Quick check: Delta G of `CO[C@H]1O[C@H](COS(=O)(=O)O)[C@@H](OS(=O)(=O)O)[C@H](OS(=O)(=O)O)[C@@H]1OS(=O)(=O)O` ?
-4.72

* * *

- tested-system: Fibroblast growth factor 1 (Homo sapiens, UniProt P05230)
- Sequence (P05230 whole entry): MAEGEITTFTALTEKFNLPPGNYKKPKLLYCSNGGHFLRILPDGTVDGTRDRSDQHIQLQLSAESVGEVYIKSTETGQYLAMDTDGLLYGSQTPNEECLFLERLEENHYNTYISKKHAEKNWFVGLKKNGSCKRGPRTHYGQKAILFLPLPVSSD
- experiment-notes: Binding affinity for Fibroblast growth factor 1
Documented Delta G across a set of compounds
Enter your answer as a number in kJ/mol; do not include the unit.

>>> assay_result("O=S(=O)(O)OC[C@@H]1O[C@H](OS(=O)(=O)O)[C@H](OS(=O)(=O)O)[C@@H](OS(=O)(=O)O)[C@@H]1OS(=O)(=O)O")
-25.3

Record request: Delta G value, item O=S(=O)(O)OC[C@@H]1O[C@H](O[C@H]2[C@H](OS(=O)(=O)O)[C@H](OS(=O)(=O)O)C(OS(=O)(=O)O)O[C@H]2COS(=O)(=O)O)[C@@H](OS(=O)(=O)O)[C@H](OS(=O)(=O)O)[C@H]1OS(=O)(=O)O (stereo partly specified)
-35.7

Param item: `O=S(=O)(O)C[C@@H]1[C@H](OS(=O)(=O)O)O[C@H](OS(=O)(=O)O)[C@H](O[C@H]2O[C@@H](COS(=O)(=O)O)[C@@H](OS(=O)(=O)O)[C@H](OS(=O)(=O)O)[C@H]2OS(=O)(=O)O)[C@H]1OS(=O)(=O)O`
-39.3

What about O=S(=O)(O)OC[C@H]1OCC[C@@H](OCCCOc2ccccc2)C1OS(=O)(=O)O (stereo partly specified) ?
-14.2

Please do the same for `CO[C@@H]1O[C@@H](COS(=O)(=O)O)[C@@H](OS(=O)(=O)O)[C@H](OC(=O)c2ccccc2)[C@@H]1OC(=O)c1ccccc1` as well.
-17.3

Ok, now O=S(=O)(O)OC[C@@H]1O[C@H](OS(=O)(=O)O)[C@H](OC2O[C@@H](COS(=O)(=O)O)[C@@H](S(=O)(=O)O)[C@H](O[C@H]3O[C@@H](COS(=O)(=O)O)[C@@H](OS(=O)(=O)O)[C@H](OS(=O)(=O)O)[C@H]3OS(=O)(=O)O)[C@H]2OS(=O)(=O)O)[C@@H](OS(=O)(=O)O)[C@@H]1OS(=O)(=O)O (stereo partly specified)
-46.2

* * *

- tested-system: Fibroblast growth factor 1 (Homo sapiens, UniProt P05230)
- experiment-notes: Binding affinity for Fibroblast growth factor 1
List of Delta G values.
Write the answer as a number in kcal/mol, unit excluded.

Sample records with Delta G:
>>> assay_result("CO[C@@H]1O[C@@H](COS(=O)(=O)O)[C@@H](O[C@@H]2O[C@@H](COS(=O)(=O)O)[C@H](OS(=O)(=O)O)[C@H](OS(=O)(=O)O)[C@@H]2OS(=O)(=O)O)[C@H](OS(=O)(=O)O)[C@@H]1OS(=O)(=O)O")
-8.1
>>> assay_result("CO[C@@H]1CCO[C@H](COS(=O)(=O)O)C1OS(=O)(=O)O (stereo partly drawn)")
-3.04
>>> assay_result("COC1C(OCc2ccccc2)C2COC(O2)C1OS(=O)(=O)O (stereo not drawn)")
-4.79
>>> assay_result("O=S(=O)(O)OC[C@H]1OCC[C@@H](OCc2ccccc2)C1OS(=O)(=O)O (stereo partly drawn)")
-3.36

Quick one: Delta G of O=C(CN(Cc1ccccc1)C(=O)C1OC(OS(=O)(=O)O)C(OS(=O)(=O)O)C(OS(=O)(=O)O)C1OS(=O)(=O)O)NC1CCCCC1 (stereo not drawn) ?
-5.35

Also check [N-]=[N+]=NCC1OC(OS(=O)(=O)O)C(OS(=O)(=O)O)C(OS(=O)(=O)O)C1OS(=O)(=O)O (stereo not drawn)
-4.73

Input COC1OC(C)C(OCc2ccccc2)C(OS(=O)(=O)O)C1OS(=O)(=O)O (stereo not drawn)
-4.73

What do you get for `O=C(O)c1cc(/N=N/c2ccc(S(=O)(=O)Nc3ccccn3)cc2)ccc1O` ?
-4.38

* * *

- tested-system: Fibroblast growth factor 1 (Homo sapiens)
- experiment-notes: Binding affinity for Fibroblast growth factor 1
Short version: Delta G at least -5 kcal/mol is condition met, less is condition not met.

>>> answer_label("CO[C@H]1O[C@@H](COCC(=O)N(CCOS(=O)(=O)O)CC(=O)NC2CCCCC2)[C@@H](OS(=O)(=O)O)[C@H](OS(=O)(=O)O)[C@H]1OS(=O)(=O)O")
"condition met"
>>> answer_label("O=S(=O)(O)c1ccc2c(S(=O)(=O)O)cc(S(=O)(=O)O)cc2c1 [NAPHTHALENE TRISULFONATE]")
"condition met"

Does Delta G meet or surpass -5 kcal/mol for `O=S(=O)(O)C[C@@H]1[C@@H](O[C@]2(COS(=O)(=O)O)O[C@H](COS(=O)(=O)O)[C@@H](OS(=O)(=O)O)[C@@H]2OS(=O)(=O)O)O[C@@H](CS(=O)(=O)O)[C@@H](OS(=O)(=O)O)[C@H]1OS(=O)(=O)O` ?
condition not met

Now consider `CO[C@H]1O[C@H](COS(=O)(=O)O)[C@@H](OS(=O)(=O)O)[C@H](OS(=O)(=O)O)[C@@H]1OS(=O)(=O)O` .
condition not met

Repeat for the following molecule: C=CCOC1C(C)OC(OC)C(OS(=O)(=O)O)C1OS(=O)(=O)O (stereo unspecified)
condition met

Consider next the molecule O=S(=O)(O)OC[C@@H]1O[C@@H](O[C@H]2[C@H](OS(=O)(=O)O)[C@H](OS(=O)(=O)O)C(OS(=O)(=O)O)O[C@H]2COS(=O)(=O)O)[C@@H](OS(=O)(=O)O)[C@H](OS(=O)(=O)O)[C@H]1OS(=O)(=O)O (stereo partly specified) in the same way.
condition not met

* * *

Heads up, these molecules all have pKd values measured for Fibroblast growth factor 1 (Homo sapiens, UniProt P05230).
Scale for pKd: -log10 of concentration given in mol/L; no unit attached.

Please review the following examples before continuing.
>>> assay_result("CO[C@@H]1O[C@@H](COS(=O)(=O)O)[C@@H](O[C@@H]2O[C@@H](COS(=O)(=O)O)[C@H](OS(=O)(=O)O)[C@H](OS(=O)(=O)O)[C@@H]2OS(=O)(=O)O)[C@H](OS(=O)(=O)O)[C@@H]1OS(=O)(=O)O")
5.94
>>> assay_result("O=S(=O)(O)OC[C@@H]1O[C@H](OS(=O)(=O)O)[C@H](OS(=O)(=O)O)[C@@H](OS(=O)(=O)O)[C@@H]1OS(=O)(=O)O")
4.43
>>> assay_result("O=S(=O)(O)c1ccc2c(S(=O)(=O)O)cc(S(=O)(=O)O)cc2c1 [NAPHTHALENE TRISULFONATE]")
3.32

Data request, read-out pKd, for `CO[C@@H]1O[C@@H](COS(=O)(=O)O)[C@@H](OS(=O)(=O)O)[C@H](OC(=O)c2ccccc2)[C@@H]1OC(=O)c1ccccc1`
3.04

Next molecule up: `O=S(=O)(O)C[C@@H]1[C@H](OS(=O)(=O)O)O[C@H](OS(=O)(=O)O)[C@H](O[C@H]2O[C@@H](COS(=O)(=O)O)[C@@H](OS(=O)(=O)O)[C@H](OS(=O)(=O)O)[C@H]2OS(=O)(=O)O)[C@H]1OS(=O)(=O)O`
6.89

Proceed to [N-]=[N+]=NCC1OC(OS(=O)(=O)O)C(OS(=O)(=O)O)C(OS(=O)(=O)O)C1OS(=O)(=O)O (stereo not drawn)
3.47

And then `CO[C@H]1O[C@H](COS(=O)(=O)O)[C@@H](OS(=O)(=O)O)[C@H](OS(=O)(=O)O)[C@@H]1OS(=O)(=O)O` , what is it?
3.90

# repeat for COC1OC(C)C(OCc2ccccc2)C(OS(=O)(=O)O)C1OS(=O)(=O)O (stereo not drawn)
3.47
